The values you see were collected from ChEMBL document CHEMBL3526020.

Assay: Drug uptake in rat jejunum
Format: ADME, tissue-based
measurement-label: Km
Answer format: value, then unit.

# query: Km of entry CC(C)[C@H](N)C(=O)OCCOCn1cnc2c(=O)nc(N)[nH]c21.Cl [VALACYCLOVIR HYDROCHLORIDE]
1200 µM

---

Assay: Drug uptake in human Caco2 cells
Format: ADME, cell-based
Settings: Caco-2 cells
measurement-label: Km (mM)
Expressed in mM, but write only the number.

# query: Km of entry CC(C)[C@H](N)C(=O)OCCOCn1cnc2c(=O)nc(N)[nH]c21.Cl [VALACYCLOVIR HYDROCHLORIDE]
1.6

---

Assay: Cmax in PepT1 knockout mouse treated with 25 nmol/g, po of valacyclovir
Assay type: ADME, organism-based
Design: dose 25 nmol/g, route oral
Conditions: in vivo
measurement-label: Cmax (nM)
Expressed in nM, but write only the number.

# query: Cmax of entry Nc1nc2c(ncn2COCCO)c(=O)[nH]1
2000

---

Assay: Drug uptake in wild type mouse jejunum at 0.01 to 50 mM by nonlinear Michaelis-Menten equation analysis
Assay type: ADME, tissue-based
Conditions: mouse, jejunum
measurement-label: Km at up to 50000 µM
Answer format: value, then unit.

# query: Km at up to 50000 µM of entry CC(C)[C@H](N)C(=O)OCCOCn1cnc2c(=O)nc(N)[nH]c21.Cl [VALACYCLOVIR HYDROCHLORIDE]
10.2 mM

---

Experiment: Tmax in wild type mouse treated with 25 nmol/g, po of valacyclovir
Format: ADME, organism-based
Settings: in vivo
measurement-label: Tmax (min)
Expressed in min, but write only the number.

# query: Tmax of entry Nc1nc2c(ncn2COCCO)c(=O)[nH]1 [ACYCLOVIR]
25

---

Assay: AUC (0 to 180 mins) in PepT1 knockout mouse treated with 25 nmol/g, po of valacyclovir
Assay type: ADME, organism-based
Set-up: time < 3 hr, dose 25 nmol/g, route oral
Settings: plasma
measurement-label: AUC(0-t) at 3 h (µM·h)
Expressed in µM·h, but write only the number.

# query: AUC(0-t) at 3 h of entry Nc1nc2c(ncn2COCCO)c(=O)[nH]1
5.02

---

Assay: Permeability in mouse jejunum
Assay type: ADME, tissue-based
Settings: read-out: permeability
measurement-label: Papp (×10⁻⁶ cm/s)
Expressed in ×10⁻⁶ cm/s, but write only the number.

# query: Papp of entry COCCc1ccc(OCC(O)CNC(C)C)cc1 (stereo unspecified) [METOPROLOL]
50

---

Test: Effective permeability of the compound in PepT1 knockout mouse jejunum at 100 uM by HPLC analysis
Assay type: ADME, tissue-based
Settings: read-out: Peff
measurement-label: Papp at 100 µM

# query: Papp at 100 µM of entry Nc1nc2c(ncn2COCCO)c(=O)[nH]1
74 nm/s

---

Target: PepT1 (SLC15A1) (Mus musculus, UniProt Q9JIP7)
Sequence (Q9JIP7 whole entry): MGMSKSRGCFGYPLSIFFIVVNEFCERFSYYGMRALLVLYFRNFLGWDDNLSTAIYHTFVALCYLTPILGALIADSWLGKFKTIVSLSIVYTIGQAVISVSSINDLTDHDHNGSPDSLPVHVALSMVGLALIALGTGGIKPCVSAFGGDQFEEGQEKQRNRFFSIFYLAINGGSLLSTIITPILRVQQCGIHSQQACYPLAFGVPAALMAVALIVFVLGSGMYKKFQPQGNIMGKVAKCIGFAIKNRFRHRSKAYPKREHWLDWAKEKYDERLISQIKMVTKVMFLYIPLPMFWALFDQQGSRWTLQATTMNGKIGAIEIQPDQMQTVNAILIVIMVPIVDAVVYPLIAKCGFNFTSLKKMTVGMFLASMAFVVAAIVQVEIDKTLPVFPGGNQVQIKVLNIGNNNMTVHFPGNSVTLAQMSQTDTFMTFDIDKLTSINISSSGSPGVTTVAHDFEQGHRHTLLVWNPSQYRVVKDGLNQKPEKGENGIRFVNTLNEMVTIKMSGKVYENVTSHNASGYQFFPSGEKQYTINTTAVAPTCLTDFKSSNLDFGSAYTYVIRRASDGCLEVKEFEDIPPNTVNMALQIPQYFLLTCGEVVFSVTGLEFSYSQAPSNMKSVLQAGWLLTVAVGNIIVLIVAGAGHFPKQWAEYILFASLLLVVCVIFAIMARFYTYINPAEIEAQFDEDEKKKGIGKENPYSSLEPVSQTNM
Assay: Effective permeability of the compound assessed as PepT1-mediated drug uptake in wild type mouse colon at 100 uM by HPLC analysis
Format: ADME
Conditions: not told, read-out: Peff
measurement-label: Papp at 100 µM (×10⁻⁶ cm/s)
Expressed in ×10⁻⁶ cm/s, but write only the number.

Which measured Papp at 100 µM belongs to CC(C)[C@H](N)C(=O)OCCOCn1cnc2c(=O)nc(N)[nH]c21.Cl [VALACYCLOVIR HYDROCHLORIDE] , tested on PepT1 (SLC15A1) (Mus musculus, UniProt Q9JIP7)?
27
